studyTarget: T1, UBE2G2:G2BR^AUP1 complex (UniProt P60604 1-165, ^15N-labeled)
T1 construct: UBE2G2, as m15; AUP1 G2BR, residues 378-404, as m16; Complex formed before titration with the gp78 RING; also called G2BR^AUP1:UBE2G2
T1 sequence 1: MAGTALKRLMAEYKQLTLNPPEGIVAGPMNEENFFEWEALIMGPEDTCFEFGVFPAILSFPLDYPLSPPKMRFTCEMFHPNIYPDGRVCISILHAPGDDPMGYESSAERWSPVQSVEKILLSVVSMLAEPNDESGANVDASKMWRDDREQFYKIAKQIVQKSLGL
T1 sequence 2: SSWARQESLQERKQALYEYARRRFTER
testSummary: NMR titration; ^1H-^15N HSQC of ^15N-labeled UBE2G2 at 150 μM, alone or bound to G2BR peptide, titrated with gp78 RING 0 to 450 μM; chemical shift perturbations fitted; 50 mM Tris-Cl pH 7.0, 0.5 mM TCEP, 100 μM zinc sulfate
statedConditions: both partners purified
parameterMeasured: Kd (µM)
Express the result in µM but write the number alone.

Query string: Find the recorded Kd belonging to gp78 RING domain (domain or fragment, UniProt Q9UKV5 313-393, looked up, gp78 (aka AMFR or RNF45), RING domain; the limits 313-393 are those of the only gp78-RING construct that the methods name; also called gp78-RING construct (aa 313 to 393)) KNYLRVVGNMEARFAVATPEELAVNNDDCAICWDSMQAARKLPCGHLFHNSCLRSWLEQDTSCPTCRMSLNIADNNRVREE and report it.
Result string: 22.5
